Origin of measurements: patent US20200362047A1

molecular target: T1, human CD137 expressed on the surface of CHO cells (human, UniProt Q07011 24-255); experiment: FMAT ligand inhibition, CD137 Ligand on CHO human CD137 cells
T1 construct: Also used for the Jurkat reporter cells that express human CD137 (functional rows); also called CHO human CD137 cells; CHO huCD137
T1 sequence (Q07011 24-255 limits assumed): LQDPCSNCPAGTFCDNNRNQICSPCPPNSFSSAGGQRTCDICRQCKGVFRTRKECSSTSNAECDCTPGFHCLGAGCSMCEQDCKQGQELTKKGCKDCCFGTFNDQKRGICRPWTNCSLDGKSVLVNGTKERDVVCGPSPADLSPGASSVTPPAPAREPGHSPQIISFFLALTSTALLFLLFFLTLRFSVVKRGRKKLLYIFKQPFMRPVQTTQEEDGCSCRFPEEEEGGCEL
// values below are reported log10 of IC50
PARAMETER MEASURED: log10 of IC50 (log10 of the value in nM)

binder="Humabody VH 1.113 (VHH, human single VH domain) VH: EVQLVESGGGLVQPGGSLRLSCAASGFTLSNYWMNWVRQAPGKGLEWVANINQDGSERYYVDSVKGRFTISRDNAKNSLYLQMNSLRAEDTAVYYCARGGEGYGVDHYGLDVSGQGTTVTVSSHHHHHH" parameter_measured="log10 of IC50" observed_measurement=-0.14
binder="Humabody VH 2.47 (VHH, human single VH domain) VHH: EVQLVESGGGLVKPGGSLRLSCAASGFTFSDYYMSWFRQAPGKGLEWVSYISGSGDIIDYADSVKGRFTISRDNAKNSLYLQMNSLRAEDTAVYYCAREDSRLTGTTDFDNWGQGTLVTVSS" parameter_measured="log10 of IC50" observed_measurement=0.94
binder="Humabody VH 1.98 (VHH, human single VH domain) VHH: EVQLVESGGGLVQPGGSLRLSCAASGFTFSSHWMTWVRQAPGKGLEWVAHIKEDESEKYYVDSVKGRFTISRDNAKNSLYLQMNSLRAEDTAVYYCARGGEGYSISHFGVDVWGQGTTVTVSS" parameter_measured="log10 of IC50" observed_measurement=0.67
binder="Humabody VH 1.107 (VHH, human single VH domain) VHH: EVQLVESGGGLVQPGGSLRLSCAASGFTLSNYWMNWVRQAPGKGLEWVANINQDGSERYYVDSVKGRFTISRDNAKNSLYLQMSSLRAEDTAVYFCARGGEGYGVDHYGLDVSGQGTTVTVSS" parameter_measured="log10 of IC50" observed_measurement=-0.26
binder="Humabody VH 1.94 (VHH, human single VH domain) VHH: EVQLVESGGGLVQPGGSLRLSCAASGFTFSSHWMTWFRQAPGKGLEWVAHIKEDGSEKYYEDSVEGRFTVSRDNAKNSLYLQMNSLRAEDTAVYYCARGGDGYSDSHFGVDVWGQGTTVTVSS" parameter_measured="log10 of IC50" observed_measurement=-0.10
binder="Humabody VH 2.20 (VHH, human single VH domain) VHH: EVQLVESGGGLVKPGGSLRLSCAASGFTFSDYYMSWIRQAPGKGLEWVSHISSSGSTIDYADSVKGRFTISRDNAKNSLYLQMNSLRAEDTAVYYCAREDPRMPGTFDFDNWGQGTLVTVSS" parameter_measured="log10 of IC50" observed_measurement=0.23
binder="Humabody VH 2.46 (VHH, human single VH domain) VHH: EVQLVESGGGLVKPGGSLRLSCAASGFTFSDYYMSWIRQAPGKGLEWVSYISGSGDIIDYADSVKGRFTISRDNAKNSLYLQMNSLRAEDTAVYYCAREDSRLTGTTDFDNWGQGTLVTVSS" parameter_measured="log10 of IC50" observed_measurement=1.89
binder="Humabody VH 1.91 (VHH, human single VH domain) VHH: EVQLVESGGGLVQPGGSLRLSCAASGFTFSSHWMTWFRQAPGKGLEWVAHIKEDGSEKYYVDSVKGRFTVSRDNAKNSVYLQMNSLRAEDTAVYYCARGGDGYSDSHFGVDVWGQGTTVTVSS" parameter_measured="log10 of IC50" observed_measurement=0.28
